The reported numbers originate from patent US20260053834A1.

# assay_system: AKT1 E17K (Homo sapiens, UniProt P31749, E17K)
# Sequence (P31749 whole entry E17K): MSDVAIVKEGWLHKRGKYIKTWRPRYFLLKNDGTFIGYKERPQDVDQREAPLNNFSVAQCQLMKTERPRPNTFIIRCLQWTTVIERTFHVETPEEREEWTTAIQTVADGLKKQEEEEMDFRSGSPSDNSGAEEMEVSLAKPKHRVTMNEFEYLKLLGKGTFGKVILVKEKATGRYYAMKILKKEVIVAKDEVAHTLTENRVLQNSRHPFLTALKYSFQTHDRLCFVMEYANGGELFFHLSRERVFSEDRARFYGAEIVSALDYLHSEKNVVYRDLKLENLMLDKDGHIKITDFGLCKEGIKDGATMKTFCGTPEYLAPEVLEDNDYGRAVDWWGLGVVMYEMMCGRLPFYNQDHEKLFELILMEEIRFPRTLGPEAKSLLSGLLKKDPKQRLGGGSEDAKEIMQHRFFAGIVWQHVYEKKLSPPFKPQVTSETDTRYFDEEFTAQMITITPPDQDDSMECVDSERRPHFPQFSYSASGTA
# procedure_summary: Live cell target engagement by NanoBRET competitive probe displacement, AKT1 E17K
# experimental_context: transfected HEK293 cells, 2 h at 37° C., read-out: AKT1 E17K IC50: GeoMean IC50
pIC50: −log10 of the molar value.
// reported pIC50 per item

compound: CC(=O)Nc1c(F)cc(C(=O)N[C@H]2CCc3cc(-n4c(-c5cccnc5N)nc5ccc(-c6ccccc6)nc54)ccc32)cc1C=O [Example 64]
pIC50: 7.00 to 8.00

(Q) Notebook: pull reported pIC50 for AKT1 E17K (Homo sapiens, UniProt P31749, E17K), entry Nc1ncccc1-c1nc2ccc(-c3ccccc3)nc2n1-c1ccc2c(c1)CC[C@@H]2NC(=O)c1cc(C=O)c2[nH]ncc2c1 [Example 35]
(A) > 8.00

(Q) // lookup pIC50 | system=AKT1 E17K (Homo sapiens, UniProt P31749, E17K) | key= Nc1ncccc1-c1nc2ccc(-c3ccccc3)nc2n1-c1ccc2c(c1)CC[C@@H]2NC(=O)c1cc(C=O)c2[nH]nnc2c1 [Example 137]
(A) > 8.00

(Q) Provide value of pIC50 for this record tested with AKT1 E17K (Homo sapiens, UniProt P31749, E17K): Nc1ncccc1-c1nc2ccc(-n3cccn3)nc2n1-c1ccc2c(c1)CC[C@@H]2NC(=O)c1cc(C=O)c(O)c(F)c1Cl [Example 110]
(A) 7.00 to 8.00

(Q) Return pIC50 measured with AKT1 E17K (Homo sapiens, UniProt P31749, E17K) given this compound: Nc1ncccc1-c1nc2ccc(F)nc2n1-c1ccc2c(c1)CC[C@@H]2NC(=O)c1ccc(O)c(C=O)c1 [Example 48]
(A) 7.00 to 8.00

(Q) Lab note: need pIC50 for Nc1ncccc1-c1nc2ccc(-c3cscn3)nc2n1-c1ccc2c(c1)CC[C@@H]2NC(=O)c1ccc(O)c(C=O)c1 [Example 88] on AKT1 E17K (Homo sapiens, UniProt P31749, E17K), anyone have it?
(A) 7.00 to 8.00
